Molecular target: Serotonin 2 (5-HT2) receptor (Homo sapiens, UniProt P28223+P28335+P41595)
Sequence (P28223 whole entry): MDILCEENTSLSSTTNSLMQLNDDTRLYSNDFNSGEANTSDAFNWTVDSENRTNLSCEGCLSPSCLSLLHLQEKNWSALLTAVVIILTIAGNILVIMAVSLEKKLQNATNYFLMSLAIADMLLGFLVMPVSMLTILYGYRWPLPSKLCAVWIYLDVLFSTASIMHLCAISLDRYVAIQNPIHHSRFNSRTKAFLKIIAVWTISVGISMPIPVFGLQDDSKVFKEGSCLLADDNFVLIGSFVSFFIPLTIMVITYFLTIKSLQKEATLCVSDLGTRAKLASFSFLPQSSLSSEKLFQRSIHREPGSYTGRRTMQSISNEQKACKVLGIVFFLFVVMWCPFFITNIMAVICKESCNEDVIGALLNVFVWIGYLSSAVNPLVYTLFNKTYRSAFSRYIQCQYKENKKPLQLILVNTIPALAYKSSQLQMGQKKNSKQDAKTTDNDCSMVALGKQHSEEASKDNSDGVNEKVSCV
Sequence (P41595 whole entry): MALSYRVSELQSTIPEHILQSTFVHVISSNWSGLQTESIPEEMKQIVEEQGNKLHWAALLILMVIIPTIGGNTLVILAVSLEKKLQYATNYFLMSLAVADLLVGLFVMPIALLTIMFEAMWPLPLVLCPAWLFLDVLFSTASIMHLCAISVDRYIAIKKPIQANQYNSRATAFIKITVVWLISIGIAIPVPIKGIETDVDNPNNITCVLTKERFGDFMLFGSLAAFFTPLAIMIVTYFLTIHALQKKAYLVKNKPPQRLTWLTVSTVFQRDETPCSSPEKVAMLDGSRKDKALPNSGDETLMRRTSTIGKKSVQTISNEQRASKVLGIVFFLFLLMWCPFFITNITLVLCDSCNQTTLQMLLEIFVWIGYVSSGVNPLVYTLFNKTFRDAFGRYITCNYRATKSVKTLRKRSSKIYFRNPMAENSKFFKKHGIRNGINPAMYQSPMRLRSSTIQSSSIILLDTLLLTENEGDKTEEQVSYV
Sequence (P28335 whole entry): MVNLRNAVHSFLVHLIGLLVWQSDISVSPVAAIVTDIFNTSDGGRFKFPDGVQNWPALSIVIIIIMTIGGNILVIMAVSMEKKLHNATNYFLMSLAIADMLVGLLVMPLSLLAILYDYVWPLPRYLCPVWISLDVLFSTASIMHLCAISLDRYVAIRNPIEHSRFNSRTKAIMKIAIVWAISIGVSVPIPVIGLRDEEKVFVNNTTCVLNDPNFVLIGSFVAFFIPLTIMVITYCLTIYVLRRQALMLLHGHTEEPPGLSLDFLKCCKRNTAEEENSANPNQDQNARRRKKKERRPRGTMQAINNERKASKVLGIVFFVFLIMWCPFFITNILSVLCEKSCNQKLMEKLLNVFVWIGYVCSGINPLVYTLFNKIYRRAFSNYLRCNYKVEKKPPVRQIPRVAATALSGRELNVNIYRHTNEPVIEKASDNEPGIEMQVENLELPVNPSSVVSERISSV
Test: The compound was evaluated for its ability to displace [3H]ketanserin from 5-hydroxytryptamine 2 receptor in cellular brain membranes
Kindly supply the reported pIC50 values for the records listed here.
For clarity, pIC50 is expressed as the negative log10 of concentration in mol/L.

IN: Fill blank: measured pIC50 of the compound CCCN(CCCCN1C(=O)c2ccccc2C1=O)C1COc2cccc(OC)c2C1 (stereo not given) is ____.
OUT: 4.52

IN: Which pIC50 reading was recorded for the compound CCCN(CCCCN1C(=O)CC2(CCCC2)CC1=O)C1COc2cccc(OC)c2C1 (stereo not given) [NSC_121851] ?
OUT: 8.00

IN: GET /values?readout=pIC50&item= CCCN(CCCCN1C(=O)c2ccccc2S1(=O)=O)C1COc2cccc(OC)c2C1 (stereo not given)
OUT: 5.00

IN: Requested read-out: pIC50. Entry: CCCN(CCCCNc1ccc([N+](=O)[O-])c2nonc12)C1COc2cccc(OC)c2C1 (stereo not given)
OUT: 4.74

IN: Field request: pIC50 | item: CCCN(CCCCNC(=O)c1cc(=O)oc2c3c4c(cc12)CCCN4CCC3)C1COc2cccc(OC)c2C1 (stereo not given)
OUT: 7.82
